# maps each entry to its pKd
Molecular target: T1, Cynomolgus monkey CD98 ECD with C-terminal His-tag (cynomolgus monkey, UniProt P08195 105-529 (human entry))
T1 construct: also called cyCD98 ECD; recombinant cynomolgus monkey CD98 extracellular domain
T1 chain: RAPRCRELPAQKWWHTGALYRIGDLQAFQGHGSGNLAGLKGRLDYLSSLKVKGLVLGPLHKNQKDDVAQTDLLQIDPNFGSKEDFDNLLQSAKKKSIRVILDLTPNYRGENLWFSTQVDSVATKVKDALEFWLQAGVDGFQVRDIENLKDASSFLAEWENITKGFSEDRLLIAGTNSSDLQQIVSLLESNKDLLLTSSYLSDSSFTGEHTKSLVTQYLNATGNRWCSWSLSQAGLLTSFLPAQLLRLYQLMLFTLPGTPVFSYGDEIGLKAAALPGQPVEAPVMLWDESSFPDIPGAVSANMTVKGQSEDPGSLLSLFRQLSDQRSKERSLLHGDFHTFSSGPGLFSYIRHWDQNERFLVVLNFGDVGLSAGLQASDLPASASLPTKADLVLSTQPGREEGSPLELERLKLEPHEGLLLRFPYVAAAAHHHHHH
Assay: SPR Biacore, anti-Fc capture of mAb, CD98 ECD analyte
When answering, recall that pKd equals minus log10 of the concentration in mol/L, and write that number alone.

binder: Recombinant anti-CD98 chimeric antibody chAb3 (antibody, human IgG1, V domains shown) VH: EVKLVESGGGLVQPGNSLRLSCATSGFTFIDYYMSWVRQSPGKALEWLGFIRNKANGYTTEYSASVKGRFTISRDNSQSILYLQMDTLRAEDSATYYCTRDRPAWFVYWGQGTLVTVSA VL: DIVMSQSPSSLAVSVGEKVTMSCKSSQSLLYSSNQKNYLAWYQQKPGQSPKLLIYWASTRESGVPDRFTGSGSGTDFTLTFSSVRAEDLAVYYCQQYYSYPYTFGGGTKLEIK
pKd: 7.40
--
binder: Recombinant anti-CD98 chimeric antibody chAb15 (antibody, human IgG1, V domains shown) VH: EVQLVESGGGLVQPGRSLKLSCAASGFTFSDYTMAWVRQAPKKGLEWVATIIYDGRGTYYRDSVKGRFTISRDNAKSTLYLQMDSLRSEDTATYYCARQSDGTYYYWGYFDYWGQGVMVTVSS VL: DIVMTQSPSSLAVSAGETVTINCKSSQSLLFSGNQKNYLAWYQQKPGQSPKLLIYWASTRQSGVPDRFIGSGSGTDFTLTIRSVQAEDLAIYYCQQYYDSPYTFGAGTKLELK
pKd: 8.43

Proceeding to the next binder to report its pKd.
Input: Which pKd value is on record for Recombinant anti-CD98 chimeric antibody chAb6 (antibody, human IgG1, V domains shown) VH: QVQLKESGPGLAQPSQTLSLTCTVSGFSLSTYGVIWLRQPPGKGLEWMGVIWTNGNTNYNSTLKSRLSISRDTSESQVYLQMNSLQTEDTATYYCARHYYDGAYYYGYFDYWGQGVMVTVSS VL: DIVMTQTPSSQAVSAGEKVTMSCKSSQSLLYSENKKNYLAWYQQKPGQSPKLLIYWASTRESGVPDRFIGSGSGTDFTLTISSVQAEDLAVYYCQQYYYFPYTFGAGTKLELK ?
Output: 8.10
